apparent KD of MS2 coat protein listing for selected sequences.
system: MS2 coat protein; assay: apparent KD of MS2 coat protein; designed switch direction (-1 OFF switch, 1 ON switch): 1; higher = weaker reporter binding; settings: input ligand: microRNA oligo, concentration not stated
TEST_READOUT: apparent KD of MS2 coat protein (nM)

PRIMARY_SEQUENCE	OBSERVED_VALUE
AGGCCAUCGGGAGGAUAUGGCACCUUAUUGGUGCCAGAAGGUCCAACAUGAGGAUCACCCAUGUGGGAGAGUUCUAAUGAACAU [Fiskers NG1(SS) - 3] (Eterna round: R96, puzzle: Same State NG 1)	25.3
GGUCCAGCCUGAGCUGGACAAAAGCAUGUACAUGAGGAUCACCCAUGUCAUGUACAAGCUUUUUGCUCGUCUUAAGU [Mat - hsa-mir-208a - 86] (Eterna round: R96, puzzle: Sensor for hsa-mir-208a)	14.1
UGUUGUAUUACAGGAUAUCUAUGAUUUUAAUUUAGAGAAGGGUAUUCACAUGAGGAUCACCCAUGUAUAUACGAGGAAGUUGUG [JMF's solution 63] (Eterna round: R96, puzzle: Same State NG 1)	40.2
AUCAUUAAUGCAGGAUAUGAUUAACAUGAGGAUCACCCAUGUGGUGUUGUGAGUAAGGAGAGUGAUCAGAAGGGCAUUUUUUUU [JMF's solution 35] (Eterna round: R96, puzzle: Same State NG 2)	292
UGGAAGAAUUAAGGAUAUCGAGUACAUAUGUUUAACAUGAGGAUCACCCAUGUGGGUUGCGGUAUCGAGAAGGUAAAUUACAAG [Mat - same State NG 2 - JL mod - D61] (Eterna round: R96, puzzle: Same State NG 2)	40.5
GCUAGAAUUAAAGCCAACAUGAGGAUCACCCAUGUAUGUUGGUAGGAUAUCGUUUGCAAAGCAAACGAGAAGGGCUAAUCUAGC [Mat - Same State NG 3 - JL Mod - D64] (Eterna round: R96, puzzle: Same State NG 3)	48.2
AUAAUACAUGAGGAUCACCCAUGUAAUUUAACUUGUAAGAUCAAGGAUAUCAGCUCGAAUAGAGCUGAGAAGGUGAUCACAUGU [SSNG3/20-A1] (Eterna round: R96, puzzle: Same State NG 3)	70.7
GCGAGCGUACUUGCAGACAUGAGGAUCACCCAUGUAACUGGACAGGAUAUGGUACCGUUUCGGUACCAGAAGGGUUCAUAUGUC [JL SSNG3 3.53] (Eterna round: R96, puzzle: Same State NG 3)	50.8
GGUCGGAACCACAUGAGGAUCACCCAUGUUCCGGAAACGGCACAGGAUAUCUGUCCGAAAAGGUCAGAGAAGGGUGAACCGACC [Fiskers NG3ss - 76] (Eterna round: R96, puzzle: Same State NG 3)	247
GAGAGAGGGCGAGGAUAUUCGGUGAUAAUGAUGGGAGAAGGCGCAGACAUGAGGAUCACCCAUGUGGGAAUAAUCCAGAGAGAG [Parity 13 - Jieux - Same State NG 1] (Eterna round: R96, puzzle: Same State NG 1)	111
GCAAUGGCGGUAGGAUAUCUAGGAUAUGGGAAAGACUAAGUCUGUAGGUCACCUAACCCAGAAGGAGAGAAGGACCCUGUAAGG [pwkr ssNG2 2FMN + F9.24] (Eterna round: R96, puzzle: Same State NG 2)	9.31
GUACUCAUGUAAGGAUAUGCAGCCGUUUCGGCUGCAGAAGGUACUAUAAUACAUGAGGAUCACCCAUGUCUCUAUAAUUUGGUG [salish99_SSNG1_r04_902] (Eterna round: R96, puzzle: Same State NG 1)	62.4
GUGGUCAGACAUGAGGAUCACCCAUGUGGAAUAAAUAAGGGACAGGAUAUCCAAUAUAGGAUAUAGGAGAAGGGUUGGUUGGUG (Eterna round: R96, puzzle: Same State NG 3)	64.5
ACAUGAGGAUCACCCAUGUAUUUAUAUGAAUCUUAAGUUACGUAGGAUAUCGUCUAUACUAUCAACGAGAAGGACGAACUCAAA [JR_SSNG3_Sub069] (Eterna round: R96, puzzle: Same State NG 3)	15.3
CGGAAAAUCGUAGGAUAUCUAGGAUAUGAACGAGGAUCACCCGAGCAGCAUCAGCGCAUCAGAGGAGAGAAGGACGAUGAUGCG [pwkr ssNG2 2F5 2FMN.5] (Eterna round: R96, puzzle: Same State NG 2)	1100
ACAUGAGAGAUAGGAUAUGUUGUACCUACAUGUGACAUGAGGAUCACCCAUGUGGUAAGUAUGAGACAGAAGGAUCAGAUAUGU [Equivalence 31 - Jieux - Same State NG 2] (Eterna round: R96, puzzle: Same State NG 2)	41.4
AUGAAUUUGCGAGGAUAUCGUUUGUUGAAGUUACGAGAAGGCGCUCACUUUACAUGAGGAUCACCCAUGUUUAUGAUAUAUGAU [JR_SSNG1_Sub074] (Eterna round: R96, puzzle: Same State NG 1)	30

----------
test system: MS2 coat protein; test: apparent KD of MS2 coat protein; designed switch direction (-1 OFF switch, 1 ON switch): -1; higher = weaker reporter binding; details: input ligand: FMN 200 uM
Would you mind labelling by apparent KD of MS2 coat protein? At or over 0.04 µM is class 1, under is class 0.

PRIMARY_SEQUENCE	SYSTEM_NAME	CLASS_LABEL
CCGCAACAUGAGGAUCACCCAUGUCAGGAUAUCGUACGUUCGUCGAUAGACGAUCGUACGAGAAGGGUGUGCGG [Mat - Exclusion 1 - Eli Mod - D35] (Eterna round: R97, puzzle: Exclusion 1)	MS2 coat protein	class 1
CAGUACUGAGGAUAUACAUGAGGAUCACCCAUGUGUUCCAGCGAGGAAACUAGCAAAAGUAGAAGGCAGUACUG [salish99_ex3_r3_077] (Eterna round: R96, puzzle: Exclusion 3)	MS2 coat protein	class 1
GGUGUGCUAGGAUAUGCUUUGGGCUCGCUUACCUUCGUUUUACUUGAGGAUCACCCAAGUAGAAGGUGCUUGCC [salish99_ex2_r4_039] (Eterna round: R97, puzzle: Exclusion 2)	MS2 coat protein	class 0
AAAAGAUAAGGAUAUUGAAGGUUCGACAUGAGGAUCACCCAUGUUAUGUUGGAAAAGGGACAAGAAGGUAUGAAAU [salish99_ex5_r4_202] (Eterna round: R97, puzzle: Exclusion 5)	MS2 coat protein	class 0
ACACGGAUAGGAUAUACUUGAGGAUCACCCAAGUGGAACCGCUUGUCCCGAUCCUAGAGUAGAAGGAUCAAAUA [Anusxebiat] (Eterna round: R97, puzzle: Exclusion 3)	MS2 coat protein	class 1
CUUUAGACAGGAUAUACUUCCGUGGUCGUAGAGUUACACAGACAUGAGGAUCACCCAUGUAGAAGGGUCAAGCU [Eternabot (L2) Solution 94] (Eterna round: R97, puzzle: Exclusion 2)	MS2 coat protein	class 1
CUAAAUCAUGUAGGAUAUGCAUAGCGAAGCUAUGCAGAAGGACAUGAGGAUCACCCAUGUUCUUCCGUCUGAGUACAGACGGAA [Mat - Exclusion NG 1 - Mod of JL - D31] (Eterna round: R96, puzzle: Exclusion NG 1)	MS2 coat protein	class 1
GCGCGAAGGUAGGAUAUCCGGCGAUCUUCCGUCGGAGAAGGACCCACAUGAGGAUCACCCAUGUGGUGAUCCUG [eternacac ex6r4 sub13] (Eterna round: R97, puzzle: Exclusion 6)	MS2 coat protein	class 0
GGGUAGUGAGGAUAUCUUGGCAAACCCGAACCUGUCAGCCAAGAGAAGGCACUUGAGGAUCACCCAAGUACAGG [Raeratti] (Eterna round: R97, puzzle: Exclusion 4)	MS2 coat protein	class 1
GCAGCGUAGUCUAAAUAAGACAUACAUGAGGAUCACCCAUGUCAGGAUAUGGUCUGGAUUACAGGCCAGAAGGGACAAAGCUGC [Eli exng3 - 002] (Eterna round: R96, puzzle: Exclusion NG 3)	MS2 coat protein	class 0
GCAAGACGAGGAUAUUGAGAAGGGAACAUGAGGAUCACCCAUGUGGUGGUUUCGACCGGUCGAGAAGGCGUAGAAC [EX5 B.6] (Eterna round: R97, puzzle: Exclusion 5)	MS2 coat protein	class 1
UAGCAUUGCCAAAGGUAGUGCAAAACAUGAGGAUCACCCAUGUAGGAUAUGGUAGGCAAAGCUUACCAGAAGGACAUGAUAAUU [Mat - Exclusion NG 3 - Mod of JL - D17] (Eterna round: R96, puzzle: Exclusion NG 3)	MS2 coat protein	class 1
CUGCUCCGUGUAGGAUAUGCAUACCACCACUAUGCAGAAGGACAUGAGGAUCACCCAUGUAUGUUAUUAUCACGUGUAGCGUCC [Design 18] (Eterna round: R96, puzzle: Exclusion NG 1)	MS2 coat protein	class 0
ACAUGUCAUUGAGGAUAUUGCAAACAUGAGGAUCACCCAUGUAAACGGAUGCUCUUACGUGGGUUCGAGAAGGCGAUGUACAUU [Ex NG2 #93] (Eterna round: R96, puzzle: Exclusion NG 2)	MS2 coat protein	class 1
UGAUCAGACCGAGGAUAUACAUGGAGGACCCACGUGAGUGGGUCCACUACAUGAGGAUCACCCAUGUAGAAGGCGGUCUGAUCU [JL ENG2 1.91] (Eterna round: R96, puzzle: Exclusion NG 2)	MS2 coat protein	class 1
AAAACGGUUCUCGUGAGGUACAUGAGGAUCACCCAUGUGAGUCAGGAUAUCCCGUCCAAGUGCGAGGAGAAGGGACGCACUUGG [Esesence] (Eterna round: R96, puzzle: Exclusion NG 3)	MS2 coat protein	class 1
GCUUGAGCUGUGAGGAUAUUUCGAGUGAAAGCUUGAGAGAAGGCACAUGAGGAUCACCCAUGUAAGGUUCGAGU [-26, -23.9 kcal, A 28%, 1bis-1bis] (Eterna round: R97, puzzle: Brourd's mod of Exclusion 4)	MS2 coat protein	class 0
